Each entry below carries its measured pIC50, system: His6-TEV-PDGFRβ (557-1016) (Homo sapiens (Human), UniProt P09619).
Sequence (P09619 557-1016): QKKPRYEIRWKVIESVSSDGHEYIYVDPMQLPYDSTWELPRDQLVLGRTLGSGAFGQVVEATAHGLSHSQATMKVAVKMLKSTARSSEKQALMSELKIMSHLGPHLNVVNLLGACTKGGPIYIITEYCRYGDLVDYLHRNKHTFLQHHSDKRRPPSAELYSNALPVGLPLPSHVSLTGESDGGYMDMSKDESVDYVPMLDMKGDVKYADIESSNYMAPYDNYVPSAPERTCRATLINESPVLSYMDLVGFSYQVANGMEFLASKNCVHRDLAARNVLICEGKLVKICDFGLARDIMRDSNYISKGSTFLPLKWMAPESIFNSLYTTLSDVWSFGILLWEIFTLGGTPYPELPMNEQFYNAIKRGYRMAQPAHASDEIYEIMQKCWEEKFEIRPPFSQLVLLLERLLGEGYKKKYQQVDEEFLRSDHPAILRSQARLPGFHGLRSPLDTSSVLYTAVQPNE
Numbers only, as −log10 of the molar value.

The cases that follow already have their pIC50 on record.
{"columns": ["Compound", "Quantity name", "Numeric readout"],
 "data": [
  ["Cc1cc(C(=O)NCCN2CCCC2(C)C)sc1NC(=O)c1cnn2cc(-c3ccc(N)nc3)sc12", "pIC50", 7.80],
  ["Cc1ncc(C(=O)NCCN2CCCC2)cc1NC(=O)c1cnn2cc(-c3cnn(C)c3C)sc12", "pIC50", 9.70],
  ["COCCN(CCNC(=O)c1cnc(C)c(NC(=O)c2cnn3cc(-c4cnn(C)c4)sc23)c1)C1CCC1", "pIC50", 9.40],
  ["Cc1ncc(NC(=O)OCCN2CC3CCC2C3)cc1NC(=O)c1cnn2cc(-c3cnn(C)c3)sc12 (stereo not shown)", "pIC50", 8.85],
  ["COCCn1cc(-c2cn3ncc(C(=O)Nc4cc(NC(=O)[C@H]5CCCN5C(C)C)cnc4C)c3s2)cn1", "pIC50", 8.37]
]}

Dear colleague, could you please provide pIC50 for the compounds listed below?
1. Cc1ncc(C(=O)NCCN2CCCC2(C)C)cc1NC(=O)c1cnn2cc(-c3ccc(=O)n(C)c3)sc12
2. Cc1ncc(NC(=O)CN2CC(C)(C)C2)cc1NC(=O)c1cnn2cc(-c3cn[nH]c3)sc12

Result ::
8.43
9.70
